- System: Coxsackievirus
- TEST DESCRIPTION: Inhibition concentration against coxsackie virus A24
- Format: functional, organism-based
pIC50: −log10 of the molar value.
VALUE KIND: pIC50

[
  {
    "MOLECULE SMILES": "O=C1N(CCCCCCOc2ccc(C(F)(F)F)cc2)CCN1c1ccncc1",
    "MEASUREMENT": 6.33
  },
  {
    "MOLECULE SMILES": "O=C1N(CCCCCCOc2ccc(Br)cc2)CCN1c1ccncc1",
    "MEASUREMENT": 6.26
  }
]

###

- TEST DESCRIPTION: Selectivity index (RD/EV71) of the compound
- Format: functional
Recorded Selectivity index values for a group of compounds are listed next.

[
  {
    "MOLECULE SMILES": "O=C1N(CCCCCOc2ccc(-c3ccc([N+](=O)[O-])cc3)cc2)CCN1c1ccncc1",
    "Selectivity index": "> 76"
  },
  {
    "MOLECULE SMILES": "COc1ccc(-c2ccc(OCCCCCN3CCN(c4ccncc4)C3=O)cc2)cc1",
    "Selectivity index": "> 74"
  },
  {
    "MOLECULE SMILES": "O=C1N(CCCCCCOc2ccc(Br)cc2)CCN1c1ccncc1",
    "Selectivity index": "> 71"
  },
  {
    "MOLECULE SMILES": "O=C1N(CCCCCOc2ccc(Br)cc2)CCN1c1ccncc1",
    "Selectivity index": "> 50"
  },
  {
    "MOLECULE SMILES": "O=C1N(CCCCCCOc2ccc(-c3cccs3)cc2)CCN1c1ccncc1",
    "Selectivity index": "> 83"
  },
  {
    "MOLECULE SMILES": "O=C1N(CCCCCCOc2ccc(C(F)(F)F)cc2)CCN1c1ccncc1",
    "Selectivity index": "> 43"
  },
  {
    "MOLECULE SMILES": "O=C1N(CCCCCOc2ccc(-c3ccc(Br)cc3)cc2)CCN1c1ccncc1",
    "Selectivity index": "> 179"
  }
]

###

- TEST DESCRIPTION: Cytotoxicity against human normal skin fibroblast (D551) cells
- Format: cell-based
VALUE KIND: CC50 (µM)

[
  {
    "MOLECULE SMILES": "O=C1N(CCCCCOc2ccc(-c3ccc([N+](=O)[O-])cc3)cc2)CCN1c1ccncc1",
    "MEASUREMENT": 66
  }
]

###

- TEST DESCRIPTION: Cytotoxicity against human normal skin fibroblast (W138) cells
- Format: cell-based

[
  {
    "MOLECULE SMILES": "O=C1N(CCCCCOc2ccc(-c3ccc(Cl)cc3)cc2)CCN1c1ccncc1",
    "CC50 / µM": 48
  },
  {
    "MOLECULE SMILES": "O=C1N(CCCCCOc2ccc(-c3ccc([N+](=O)[O-])cc3)cc2)CCN1c1ccncc1",
    "CC50 / µM": 70
  }
]

###

Overview of recorded Selectivity index for various compounds
- TEST DESCRIPTION: Selectivity index (D551/EV71) of the compound
- Format: functional
VALUE KIND: Selectivity index

[
  {
    "MOLECULE SMILES": "O=C1N(CCCCCCOc2ccc(-c3cccs3)cc2)CCN1c1ccncc1",
    "QUAL": "=",
    "MEASUREMENT": 153
  },
  {
    "MOLECULE SMILES": "COc1ccc(-c2ccc(OCCCCCN3CCN(c4ccncc4)C3=O)cc2)cc1",
    "QUAL": ">",
    "MEASUREMENT": 294
  },
  {
    "MOLECULE SMILES": "O=C1N(CCCCCCOc2ccc(C(F)(F)F)cc2)CCN1c1ccncc1",
    "QUAL": "=",
    "MEASUREMENT": 108
  },
  {
    "MOLECULE SMILES": "O=C1N(CCCCCOc2ccc(-c3ccc(Br)cc3)cc2)CCN1c1ccncc1",
    "QUAL": ">",
    "MEASUREMENT": 714
  },
  {
    "MOLECULE SMILES": "O=C1N(CCCCCOc2ccc(Br)cc2)CCN1c1ccncc1",
    "QUAL": "=",
    "MEASUREMENT": 100
  },
  {
    "MOLECULE SMILES": "O=C1N(CCCCCCOc2ccc(Br)cc2)CCN1c1ccncc1",
    "QUAL": "=",
    "MEASUREMENT": 148
  }
]
